- method summary: Time at which plasma concentration stays at in vitro IC50 for mouse liver homogenate 17beta-HSD2 in C57BL/6N mouse at 50 mg/kg, po by HPLC-LC/MS analysis
- Assay type: ADME, organism-based
- assay setup: in vivo
property: Time (h)

chemical structure: O=C(c1ccc(-c2ccccc2NS(=O)(=O)c2ccc(F)cc2)s1)c1cc(F)c(F)c(O)c1F
property: Time
display unit: h
recorded result: 24
//
chemical structure: O=C(c1ccc(-c2ccccc2NS(=O)(=O)c2ccc(Cl)nc2)s1)c1cc(F)c(F)c(O)c1F
property: Time
display unit: h
recorded result: 24
//
chemical structure: O=C(c1ccc(-c2cc(NS(=O)(=O)c3ccc(F)cc3)c(F)cc2F)s1)c1cc(F)c(F)c(O)c1F
property: Time
display unit: h
recorded result: 8
//
chemical structure: O=C(c1ccc(-c2cccc(NS(=O)(=O)c3ccccc3OC(F)(F)F)c2)s1)c1cc(F)c(F)c(O)c1F
property: Time
display unit: h
recorded result: 8
//
chemical structure: N#Cc1ccc(S(=O)(=O)Nc2cccc(-c3ccc(C(=O)c4cc(F)c(F)c(O)c4F)s3)c2)cc1
property: Time
display unit: h
recorded result: 8

====

- method summary: Half life in mouse liver S9 fraction at 1 uM measured in presence of NADPH generating system
- Format: ADME, subcellular
property: half-life at 1 µM

chemical structure: O=C(c1ccc(-c2ccccc2NS(=O)(=O)c2ccc(Cl)nc2)s1)c1cc(F)c(F)c(O)c1F
property: half-life at 1 µM
recorded result: 1.25 h
--
chemical structure: O=C(c1ccc(-c2cccc(NS(=O)(=O)c3ccc(F)cc3)c2)s1)c1cc(F)c(F)c(O)c1F
property: half-life at 1 µM
recorded result: 0.4 h
--
chemical structure: O=C(c1ccc(-c2ccc(NS(=O)(=O)c3ccc(F)cc3)cc2)s1)c1cc(F)c(F)c(O)c1F
property: half-life at 1 µM
recorded result: > 2 h
--
chemical structure: O=C(c1ccc(-c2ccccc2NS(=O)(=O)c2ccc(F)cc2)s1)c1cc(F)c(F)c(O)c1F
property: half-life at 1 µM
recorded result: 1.02 h
--
chemical structure: N#Cc1cccc(S(=O)(=O)Nc2cccc(-c3ccc(C(=O)c4cc(F)c(F)c(O)c4F)s3)c2)c1
property: half-life at 1 µM
recorded result: > 2 h
--
chemical structure: N#Cc1ccc(S(=O)(=O)Nc2cccc(-c3ccc(C(=O)c4cc(F)c(F)c(O)c4F)s3)c2)cc1
property: half-life at 1 µM
recorded result: > 2 h
--
chemical structure: CS(=O)(=O)Nc1cccc(-c2ccc(C(=O)c3cc(F)c(F)c(O)c3F)s2)c1
property: half-life at 1 µM
recorded result: 1.13 h
--
chemical structure: O=C(c1ccc(-c2cccc(NS(=O)(=O)c3ccc(Cl)nc3)c2)s1)c1cc(F)c(F)c(O)c1F
property: half-life at 1 µM
recorded result: 1.1 h
--
chemical structure: O=C(c1ccc(-c2cc(NS(=O)(=O)c3ccc(F)cc3)c(F)cc2F)s1)c1cc(F)c(F)c(O)c1F
property: half-life at 1 µM
recorded result: 1.25 h

====

# solubility annotations
- method summary: Aqueous solubility of the compound in pH 7.2 phosphate buffered saline/DMSO
- Type: physicochemical
property: solubility

chemical structure: O=C(c1ccc(-c2cc(NS(=O)(=O)c3ccc(Cl)nc3)c(F)cc2F)s1)c1cc(F)c(F)c(O)c1F
recorded result: > 200 µM

chemical structure: O=C(c1ccc(-c2cccc(NS(=O)(=O)c3cccnc3)c2)s1)c1cc(F)c(F)c(O)c1F
recorded result: > 200 µM

chemical structure: Cc1ccc(-c2ccc(C(=O)c3cc(F)c(F)c(O)c3F)s2)cc1NS(=O)(=O)c1ccc(F)cc1
recorded result: 100 to 200 µM

chemical structure: O=C(c1ccc(-c2cccc(NS(=O)(=O)c3ccccc3OC(F)(F)F)c2)s1)c1cc(F)c(F)c(O)c1F
recorded result: 50 µM

chemical structure: O=C(c1ccc(-c2ccc(NS(=O)(=O)c3ccc(Cl)nc3)cc2)s1)c1cc(F)c(F)c(O)c1F
recorded result: > 200 µM

chemical structure: N#Cc1ccccc1S(=O)(=O)Nc1cccc(-c2ccc(C(=O)c3cc(F)c(F)c(O)c3F)s2)c1
recorded result: > 200 µM

chemical structure: O=C(c1ccc(-c2cccc(NS(=O)(=O)c3ccc(Cl)nc3)c2)s1)c1cc(F)c(F)c(O)c1F
recorded result: > 200 µM

chemical structure: Cc1c(NS(=O)(=O)c2ccc(F)cc2)cccc1-c1ccc(C(=O)c2cc(F)c(F)c(O)c2F)s1
recorded result: > 200 µM
